# IC50 values compiled below
- System: anti-CD3/anti-CD28 induced GM-CSF production
- PROTOCOL_NOTES: anti-CD3/anti-CD28 induced GM-CSF production by PBMC (ELISA)
- Type: cell-based, human
- STUDY_CONDITIONS: Homo sapiens, 72 h, 3 days anti-CD3/anti-CD28 stimulation, mean ± SD of at least 3 donors, 0.15-40 μM tested, read-out: IC50 aCD3/aCD28 stimulation (GM-CSF production)
Please reply with the bare figure in µM and do not write the unit itself.

Sample answers from the record:
CCCCC1C(=O)N(c2ccccc2)N(c2ccccc2)C1=O [PB, phenbutazone] = 30
CCCCC1(O)C(=O)N(c2ccccc2)N(c2ccc(O)cc2)C1=O (stereo not drawn) [4-OH-OPB, 4-Hydroxy-oxyphenbutazone] = 0.8

Measured IC50 for this entry CCCCC1C(=O)N(c2ccccc2)N(c2ccc(O)cc2)C1=O (stereo not drawn) [OPB, oxyphenbutazone] on anti-CD3/anti-CD28 induced GM-CSF production: 25

Numbers sourced from patent US20080262068A1.
